assay: Selectivity ratio of IC50 for ovine COX1 to IC50 for recombinant human COX2
metric name: Ratio IC50

CCOC(=O)CSc1nnc(-c2ccc(S(C)(=O)=O)cc2)c(-c2ccc(OC)cc2)n1; 8.79
CCOC(=O)CSc1nnc(-c2ccc(S(C)(=O)=O)cc2)c(-c2ccc(C)cc2)n1; 8.79
CCOC(=O)CSc1nnc(-c2ccc(S(C)(=O)=O)cc2)c(-c2ccccc2)n1; 8.79
CCOC(=O)CSc1nnc(-c2ccc(S(C)(=O)=O)cc2)c(-c2ccc(F)cc2)n1; 8.79
CCOC(=O)CSc1nnc(-c2ccc(S(C)(=O)=O)cc2)c(-c2ccc(Cl)cc2)n1; 8.79

----------
biological target: Prostaglandin G/H synthase 2 (Homo sapiens); assay: Inhibition of COX2 (unknown origin) using arachidonic acid as substrate preincubated for 20 mins followed by substrate addition measured at 1 sec interval up to 60 secs by chemiluminescence assay
Sequence (P35354 whole entry): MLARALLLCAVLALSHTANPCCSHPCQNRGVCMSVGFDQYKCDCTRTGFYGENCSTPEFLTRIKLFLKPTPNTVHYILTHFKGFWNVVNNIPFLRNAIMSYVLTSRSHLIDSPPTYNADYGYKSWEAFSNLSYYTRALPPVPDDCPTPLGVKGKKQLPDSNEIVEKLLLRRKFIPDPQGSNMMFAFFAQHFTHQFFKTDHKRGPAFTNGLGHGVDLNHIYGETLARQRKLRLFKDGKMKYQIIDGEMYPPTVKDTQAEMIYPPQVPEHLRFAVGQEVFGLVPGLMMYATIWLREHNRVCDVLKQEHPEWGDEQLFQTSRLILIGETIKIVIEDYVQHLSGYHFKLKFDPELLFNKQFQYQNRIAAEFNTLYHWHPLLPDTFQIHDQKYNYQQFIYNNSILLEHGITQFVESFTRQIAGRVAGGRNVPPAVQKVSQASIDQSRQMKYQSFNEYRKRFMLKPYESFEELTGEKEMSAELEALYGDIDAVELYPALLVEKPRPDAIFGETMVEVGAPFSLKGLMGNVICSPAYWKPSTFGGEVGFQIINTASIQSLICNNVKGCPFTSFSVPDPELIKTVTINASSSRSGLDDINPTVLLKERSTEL
metric name: pIC50
Scale note: pIC50 = -log10(concentration in M).

Value of pIC50 reported for the molecule CCOC(=O)c1cnn(-c2ccccn2)c1-n1nnc2ccccc2c1=O is 4.70
